tgt: Photoreceptor-specific nuclear receptor (Homo sapiens) (UniProt Q9Y5X4)
Sequence (Q9Y5X4 whole entry, looked up, the tested form may be a part): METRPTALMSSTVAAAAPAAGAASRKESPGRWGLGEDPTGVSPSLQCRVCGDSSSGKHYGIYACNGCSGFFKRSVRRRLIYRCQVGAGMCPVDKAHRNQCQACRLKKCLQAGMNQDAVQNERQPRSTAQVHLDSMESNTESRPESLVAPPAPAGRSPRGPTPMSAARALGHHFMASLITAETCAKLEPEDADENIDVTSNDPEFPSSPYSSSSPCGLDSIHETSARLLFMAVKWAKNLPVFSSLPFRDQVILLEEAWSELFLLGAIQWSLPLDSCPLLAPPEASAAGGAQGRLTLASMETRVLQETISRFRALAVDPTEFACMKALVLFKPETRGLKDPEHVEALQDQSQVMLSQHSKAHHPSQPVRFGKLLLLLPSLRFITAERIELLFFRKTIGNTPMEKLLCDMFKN
assay-remarks: NCOR release from NR2E3 in cells – cell-based, luminescence, CHO-S, Gal4-NCOR/VP16-NR2E3, primary screen (AID 602229);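 note: higher means lower luciferase signal from less NR2E3 corepressor binding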
condition-info: CHO-S Gal4-NCOR/VP16-NR2E3 two-hybrid, luciferase; at 3.98 µM
In all, about 360,000 compounds went through this assay and about 1,300 (0.36%) were called active.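 Rule for the calls: active = inhibition above the mean of all tested compounds plus 3 SD (cut at about 70% in these data); inactive = the rest.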 Many of the other results were omitted from the sample, so actives are more common in it than they were.
Answer with one of the outcomes active, inactive

compound: Cc1ccc(O/C=C2\OC(=O)c3ccccc32)cc1
assigned-class: inactive
--
compound: c1ccc(C(=NNc2nc3ccccc3s2)c2ccccn2)cc1
assigned-class: active
--
compound: Cc1ccc(S(=O)(=O)Nc2ccc3ncccc3c2)cc1
assigned-class: active

Note: attention shifts to another entry.
[Q] Which outcome was assigned to `O=S(=O)(Nc1ccccc1N1CCOCC1)c1ccc(Cl)s1` in this test?
[A] inactive

----------
tgt: Photoreceptor-specific nuclear receptor (Homo sapiens)
assay-remarks: NCOR release from NR2E3 in cells – cell-based, luminescence, CHO-S, Gal4-NCOR/VP16-NR2E3, primary screen (AID 602229);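 note: higher means lower luciferase signal from less NR2E3 corepressor binding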
condition-info: CHO-S Gal4-NCOR/VP16-NR2E3 two-hybrid, luciferase; at 3.98 µM
Among all 360,000 compounds or so, about 1,300 (0.36%) were called active.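 How the source made its calls: active means inhibition above the mean of all tested compounds plus 3 SD (cut at about 70% in these data); inactive means the rest.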 For the sample, actives were picked, then their nearest neighbours and some compounds at random.
Answer with one of the outcomes active, inactive

These recorded examples may help you get a feel for the data.
compound: Cc1cc(C(=O)OCC(=O)Nc2ccccc2Cl)c(C)o1
assigned-class: inactive
//
compound: Cc1nc(-c2ccc(F)cc2)c(CC(=O)N2CCN(S(=O)(=O)c3ccc(F)cc3)CC2)s1
assigned-class: inactive
//
compound: CCN(CC)S(=O)(=O)c1ccc(N(C)CCc2ccc(OC)c(OC)c2)nc1
assigned-class: inactive
//
compound: COc1ccc(S(=O)(=O)n2nc(C)c(S(=O)(=O)N3CCOCC3)c2C)cc1
assigned-class: inactive

[Q] Which outcome was assigned to `COc1ccc(S(=O)(=O)NCCCCOc2ccc(Cl)cc2)cc1` in this test?
[A] active

[Q] Can you handle CN(Cc1cn(Cc2ccc(C(F)(F)F)cc2)nn1)C1CN(Cc2cn(Cc3ccc(C(F)(F)F)cc3)nn2)S(=O)(=O)C1 (configuration not stated) next?
[A] active

[Q] Can you handle `Cc1ccc(S(=O)(=O)N2CCC3(CC2)OCCO3)c(C)c1` next?
[A] inactive

[Q] Can you handle Cn1cc(CN2CCCCC2c2ccccn2)c(-c2ccc3c(c2)OCCO3)n1 (configuration not stated) next?
[A] inactive

[Q] Can you handle `CCNC(=O)c1c(O)c2cccc3c2n(c1=O)CC3` next?
[A] inactive

[Q] Can you handle `COc1ccc(S(=O)(=O)NCCOc2ccccc2)cc1F` next?
[A] inactive

[Q] Can you handle `COc1ccc(OCCNS(=O)(=O)Cc2ccccc2)cc1` next?
[A] inactive

[Q] Can you handle COCCCn1cc(CN2CC(N(C)C)CS2(=O)=O)nn1 (configuration not stated) next?
[A] inactive

[Q] Can you handle `Cc1ccc(C)c(S(=O)(=O)N2CCN(c3ncnc4sccc34)CC2)c1` next?
[A] active

[Q] Can you handle Cc1ccc(Cn2cc(CN3CC(N4CCN(C)CC4)CS3(=O)=O)nn2)cc1 (configuration not stated) next?
[A] inactive

[Q] Can you handle `Cc1nc(-c2ccc(F)cc2)c(CC(=O)Nc2cc(S(=O)(=O)N3CCCCC3)ccc2C)s1` next?
[A] active
